Target: T1, Human CDCP1 (human, UniProt Q9H5V8 30-667, limits assumed)
T1 construct: also called CUB domain-containing protein 1; SIMA135
T1 sequence (looked up): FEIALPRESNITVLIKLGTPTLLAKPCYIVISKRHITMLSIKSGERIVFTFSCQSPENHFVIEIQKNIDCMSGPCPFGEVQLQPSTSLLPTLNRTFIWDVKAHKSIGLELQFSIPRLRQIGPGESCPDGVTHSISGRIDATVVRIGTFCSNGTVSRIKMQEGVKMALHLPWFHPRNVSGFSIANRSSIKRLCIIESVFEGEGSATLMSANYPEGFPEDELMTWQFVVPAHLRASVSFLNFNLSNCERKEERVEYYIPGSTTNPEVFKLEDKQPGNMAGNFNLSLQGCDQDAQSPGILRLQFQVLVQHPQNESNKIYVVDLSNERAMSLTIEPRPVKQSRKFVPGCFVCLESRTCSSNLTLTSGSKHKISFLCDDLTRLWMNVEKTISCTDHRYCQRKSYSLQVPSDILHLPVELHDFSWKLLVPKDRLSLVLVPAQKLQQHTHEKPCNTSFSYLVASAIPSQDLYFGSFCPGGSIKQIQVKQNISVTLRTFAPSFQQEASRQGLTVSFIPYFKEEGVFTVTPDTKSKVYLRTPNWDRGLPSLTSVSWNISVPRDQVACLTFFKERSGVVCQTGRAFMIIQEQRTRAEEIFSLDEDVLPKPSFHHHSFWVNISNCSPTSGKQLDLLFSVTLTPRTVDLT
Assay: ELISA; column head 'ELISA~EC50 Kd (nM)'
MEASURED_METRIC: pEC50
Field pEC50 (float): negative decimal logarithm of the concentration in molar.

Below, 2 binders whose answers are already recorded.
>>> recorded_measurement("CDCP1-008 Fab (Fab, V domains shown, Tested as Fab) VH: EVQLVESGGGLVQPGGSLRLSCAASGFNISSYYMHWVRQAPGKGLEWVASIYPYSGYTYYADSVKGRFTISADTSKNTAYLQMNSLRAEDTAVYYCARAYYAMDYWGQGTLVTVSS VL: DIQMTQSPSSLSASVGDRVTITCRASQSVSSAVAWYQQKPGKAPKLLIYSASSLYSGVPSRFSGSRSGTDFTLTISSLQPEDFATYYCQQSYYVYPITFGQGTKVEIK")
7.12
>>> recorded_measurement("CDCP1-003 Fab (Fab, V domains shown, Tested as Fab) VH: EVQLVESGGGLVQPGGSLRLSCAASGFNISYYSMHWVRQAPGKGLEWVASISPYSGYTSYADSVKGRFTISADTSKNTAYLQMNSLRAEDTAVYYCARGYYALDYWGQGTLVTVSS VL: DIQMTQSPSSLSASVGDRVTITCRASQSVSSAVAWYQQKPGKAPKLLIYSASSLYSGVPSRFSGSRSGTDFTLTISSLQPEDFATYYCQQYYYFYPFTFGQGTKVEIK")
7.19

Now let's try a different one.
Reported pEC50, binder CDCP1-004 Fab (Fab, V domains shown, Tested as Fab) VH: EVQLVESGGGLVQPGGSLRLSCAASGFNISYYYMHWVRQAPGKGLEWVASIYSSYGYTSYADSVKGRFTISADTSKNTAYLQMNSLRAEDTAVYYCARVYYGFDYWGQGTLVTVSS VL: DIQMTQSPSSLSASVGDRVTITCRASQSVSSAVAWYQQKPGKAPKLLIYSASSLYSGVPSRFSGSRSGTDFTLTISSLQPEDFATYYCQQSYYVYPITFGQGTKVEIK : ____
8.63

Origin of values: patent US20210179729A1
